- METHOD_DESCRIPTION: in vitro
- TEST_SETTINGS: human, Huh7/C24 cells
- Description: Cytotoxicity against human Huh7/C24 cells after 72 hrs by bDNA assay
ENDPOINT_LABEL: CC50 at 72 h

• CC1(C)CN(Cc2ccc(F)cc2)C(=O)C(C2=NS(=O)(=O)c3cc(NS(C)(=O)=O)ccc3N2)=C1O = > 33 µM
• CS(=O)(=O)Nc1ccc2c(c1)S(=O)(=O)N=C(C1=C(O)CCN(Cc3ccc(F)cc3)C1=O)N2 = > 33 µM
• CS(=O)(=O)Nc1ccc2c(c1)S(=O)(=O)N=C(C1=C(O)C3(CCC3)CN(Cc3ccc(F)cc3)C1=O)N2 = > 33 µM
• CC[C@@]1(C)CN(Cc2ccc(F)cc2)C(=O)C(C2=NS(=O)(=O)c3cc(NS(C)(=O)=O)ccc3N2)=C1O = > 1 µM
• CC(C)=CC[C@H]1CN(Cc2ccc(F)cc2)C(=O)C(C2=NS(=O)(=O)c3cc(NS(C)(=O)=O)ccc3N2)=C1O = > 33 µM
• CC(C)CC[C@H]1CN(Cc2ccc(F)cc2)C(=O)C(C2=NS(=O)(=O)c3cc(NS(C)(=O)=O)ccc3N2)=C1O = > 33 µM

Exercise: Data request, read-out CC50 at 72 h, for CC(C)(C)CC[C@]1(C)CN(C2CCC2)C(=O)C(C2=NS(=O)(=O)c3cc(NS(C)(=O)=O)ccc3N2)=C1O
Key: > 1 µM

Exercise: Next entry: CC(C)CC[C@@]1(C)CN(Cc2ccc(F)cc2)C(=O)C(C2=NS(=O)(=O)c3cc(NS(C)(=O)=O)ccc3N2)=C1O
Key: > 33 µM

---

- METHOD_DESCRIPTION: in vitro
- TEST_SETTINGS: human, liver microsomes
Reported half-life at 5 µM values for a set of compounds

Worked examples follow.
- CC(C)/C=C/C[C@@H]1CN(C2CCCC2)C(O)C(C2=NS(=O)(=O)c3cc(NS(C)(=O)=O)ccc3N2)=C1O (stereo partly specified): 0.583 h
- C[C@]1(CC2CC2)CN(Cc2ccc(F)cc2)C(=O)C(C2=NS(=O)(=O)c3cc(NS(C)(=O)=O)ccc3N2)=C1O: > 1 h
- CC(C)CC[C@]1(C)CN(C2CCCCC2)C(=O)C(C2=NS(=O)(=O)c3cc(NS(C)(=O)=O)ccc3N2)=C1O: > 0.06 h
- CC(C)(C)[C@H]1CC(O)=C(C2=NS(=O)(=O)c3cc(NS(C)(=O)=O)ccc3N2)C(=O)N1Cc1ccc(F)cc1: > 1 h

Exercise: Data request, read-out half-life at 5 µM, for CS(=O)(=O)Nc1ccc2c(c1)S(=O)(=O)N=C(C1=C(O)CCN(Cc3ccc(F)cc3)C1=O)N2
Key: > 1 h

Exercise: Next entry: CS(=O)(=O)Nc1ccc2c(c1)S(=O)(=O)N=C(C1=C(O)C3(CCC3)CN(Cc3ccc(F)cc3)C1=O)N2
Key: > 1 h

---

- METHOD_DESCRIPTION: in vitro
- TEST_SETTINGS: human, Huh7/C24 cells
ENDPOINT_LABEL: CC50 at 72 h

- C[C@]1(CC2CC2)CN(Cc2ccc(F)cc2)C(=O)C(C2=NS(=O)(=O)c3cc(NS(C)(=O)=O)ccc3N2)=C1O: > 33 µM
- CC(C)CC[C@@H]1CN(C2CCCC2)C(=O)C(C2=NS(=O)(=O)c3cc(NS(C)(=O)=O)ccc3N2)=C1O: > 33 µM
- CC(C)CC[C@]1(C)CN(C2CCCCC2)C(=O)C(C2=NS(=O)(=O)c3cc(NS(C)(=O)=O)ccc3N2)=C1O: > 33 µM
- C[C@@]1(Cc2ccc(F)cc2)CN(C2CC2)C(=O)C(C2=NS(=O)(=O)c3cc(NS(C)(=O)=O)ccc3N2)=C1O: > 33 µM

Exercise: Data request, read-out CC50 at 72 h, for CC(C)(C)[C@H]1CC(O)=C(C2=NS(=O)(=O)c3cc(NS(C)(=O)=O)ccc3N2)C(=O)N1Cc1ccc(F)cc1
Key: > 10 µM

Exercise: Next entry: CS(=O)(=O)Nc1ccc2c(c1)S(=O)(=O)N=C(C1=C(O)C[C@@H](c3ccc(F)cc3)N(Cc3ccc(F)cc3)C1=O)N2
Key: > 10 µM

Exercise: Next entry: CS(=O)(=O)Nc1ccc2c(c1)S(=O)(=O)N=C(C1=C(O)C[C@H](c3ccccc3)N(Cc3ccc(F)cc3)C1=O)N2
Key: > 10 µM

Exercise: Next entry: CC(C)/C=C/C[C@@H]1CN(C2CCCC2)C(O)C(C2=NS(=O)(=O)c3cc(NS(C)(=O)=O)ccc3N2)=C1O (some centres not stated)
Key: > 33 µM

Exercise: Next entry: C[C@@]1(CCC2CC2)CN(C2CCC2)C(=O)C(C2=NS(=O)(=O)c3cc(NS(C)(=O)=O)ccc3N2)=C1O
Key: > 1 µM

Exercise: Next entry: CC(C)[C@H]1CC(O)=C(C2=NS(=O)(=O)c3cc(NS(C)(=O)=O)ccc3N2)C(=O)N1Cc1ccc(F)cc1
Key: > 1 µM
